B1: POU domain, class 3, transcription factor 1, residues 247 to 324; numbered along this chain, Q03052 (parent)
chain: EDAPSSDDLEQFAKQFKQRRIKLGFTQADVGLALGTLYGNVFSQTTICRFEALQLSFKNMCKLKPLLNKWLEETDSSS

Variants of: B1
TEST PROTOCOL: abundance fitness (aPCA) (normalised: wild type 0, dead -1); higher = more abundant; growth selection in yeast, the domain comes from the species named
CONDITION DETAILS: Homo sapiens
Class 1: abundance fitness at least -0.2. Class -1: abundance fitness below -0.2.

State whether the measured abundance fitness reaches -0.2, counting equality as reaching it, for K62Y
1

State whether the measured abundance fitness reaches -0.2, counting equality as reaching it, for I21W
-1

State whether the measured abundance fitness reaches -0.2, counting equality as reaching it, for L67H
1

State whether the measured abundance fitness reaches -0.2, counting equality as reaching it, for A33N
1

State whether the measured abundance fitness reaches -0.2, counting equality as reaching it, for K58W
-1

State whether the measured abundance fitness reaches -0.2, counting equality as reaching it, for I21E
1

State whether the measured abundance fitness reaches -0.2, counting equality as reaching it, for N40F
1
